# credit: patent US7482379B2

biological target: Caspase-6 (Homo sapiens, UniProt P55212); assay: Caspase-6 progress curve inhibition assay; conditions: second-order rate constant; Ac-DEVD-AMC substrate; Pipes buffer pH 7.2
Sequence (P55212 24-179 limits assumed): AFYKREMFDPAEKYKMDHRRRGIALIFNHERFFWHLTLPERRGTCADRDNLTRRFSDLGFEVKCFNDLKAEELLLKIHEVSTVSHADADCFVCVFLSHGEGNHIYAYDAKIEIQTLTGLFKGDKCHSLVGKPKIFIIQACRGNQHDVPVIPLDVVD
Sequence (P55212 194-293 limits assumed): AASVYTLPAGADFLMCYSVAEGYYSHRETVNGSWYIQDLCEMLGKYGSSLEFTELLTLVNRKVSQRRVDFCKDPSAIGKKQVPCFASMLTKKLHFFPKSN
MEASURE NAME: k2 Caspase-6

CC(C)C[C@H](NC(=O)OCc1ccccc1)C(=O)N[C@@H](CCC(=O)O)C(=O)N[C@H](C(=O)NN(CC(=O)O)C(=O)/C=C/C(=O)N(C)Cc1ccccc1)[C@@H](C)O (relative stereo) : 10,800 M^−1s^−1

Input line: Please list k2 Caspase-6 recorded for the compound CC(C)[C@H](NC(=O)[C@H](CCC(=O)O)NC(=O)[C@H](CC(=O)O)NC(=O)OCc1ccccc1)C(=O)NN(CC(=O)O)C(=O)/C=C/C(=O)N(C)CCc1ccccc1 (relative stereo)
Output line: 4,000 M^−1s^−1
